Assay comment: Selectivity index, ratio of IC50 for human LO2 cells to IC50 for human Bel7402 cells
Format: toxicity
Experimental setup: LO2 cells versus Bel7402 cells, read-out: Ratio IC50
selectivity ratio strictly under 6 means True; at 6 or over means False.

Please review the following examples before continuing.
C[C@H]1CCC/C=C/[C@@H]2C[C@H](OC(=O)c3ccc(N(CCCl)CCCl)cc3)C[C@H]2[C@H](OC(=O)c2ccc(N(CCCl)CCCl)cc2)/C=C/C(=O)O1 :: True
COC(=O)[C@H](Cc1ccc(N(CCCl)CCCl)cc1)NC(=O)CCC(=O)O :: True
C[C@H]1CCC/C=C/[C@@H]2C[C@H](OC(=O)CCCc3ccc(N(CCCl)CCCl)cc3)C[C@H]2[C@H](OC(=O)CCCc2ccc(N(CCCl)CCCl)cc2)/C=C/C(=O)O1 :: True
COC(=O)[C@H](Cc1ccc(N(CCCl)CCCl)cc1)NC(=O)CCC(=O)O[C@@H]1C[C@H]2[C@H](O)/C=C/C(=O)O[C@@H](C)CCC/C=C/[C@@H]2C1 :: True
C[C@H]1CCC/C=C/[C@@H]2C[C@H](O)C[C@H]2[C@H](OC(=O)c2ccc(N(CCCl)CCCl)cc2)/C=C/C(=O)O1 :: False
C[C@H]1CCC/C=C/[C@@H]2C[C@H](OC(=O)CCCc3ccc(N(CCCl)CCCl)cc3)C[C@H]2[C@H](O)/C=C/C(=O)O1 :: True
C[C@H]1CCC/C=C/[C@@H]2C[C@H](OC(=O)c3ccc(N(CCCl)CCCl)cc3)C[C@H]2[C@H](O)/C=C/C(=O)O1 :: False
COC(=O)[C@H](Cc1ccc(N(CCCl)CCCl)cc1)NC(=O)CCC(=O)O[C@@H]1C[C@@H]2[C@H](/C=C/CCC[C@H](C)OC(=O)/C=C/[C@H]2OC(=O)CCC(=O)N[C@@H](Cc2ccc(N(CCCl)CCCl)cc2)C(=O)OC)C1 :: False

QUERY: Consider the compound `C[C@H]1CCC/C=C/[C@@H]2C[C@H](O)C[C@H]2[C@H](OC(=O)CCCc2ccc(N(CCCl)CCCl)cc2)/C=C/C(=O)O1` . Is its selectivity ratio strictly less than 6?
RESULT: False

QUERY: Now try `COC(=O)[C@H](Cc1ccc(N(CCCl)CCCl)cc1)NC(=O)CCC(=O)O[C@@H]1/C=C/C(=O)O[C@@H](C)CCC/C=C/[C@@H]2C[C@H](O)C[C@H]21` .
RESULT: True

Where do the numbers come from? From ChEMBL document CHEMBL4196069.
